Test system: MS2 coat protein
methodDescription: apparent KD of MS2 coat protein; designed switch direction (-1 OFF switch, 1 ON switch): 1; higher = weaker reporter binding
assaySetup: Eterna round: R95; input ligand: FMN 200 uM

macromoleculeSequence: AACAAUCUAUCUGAGGAUAUCAUGAAAUAAACAUGAGGAUCACCCAUGUGCAGGAAAUCUGCAUAUGAGAAGGCAGAUAGAUUGA [salish99_ss2_r3_043] (puzzle: Same State 2)
apparent KD of MS2 coat protein: 33.9 nM
//
macromoleculeSequence: UCUUGGUUUUUGCUCGUUUUUUGUGUUGAACAUGAGGAUCACCCAUGUAUUGUACGGUCCGAUUUAGUGAUGGUCCA [JMF 40] (puzzle: Sensor for hsa-mir-208a)
apparent KD of MS2 coat protein: 36.9 nM
//
macromoleculeSequence: AGUCCAGCCUGAGCUGGACAAAAGCAUGUACAUGAGGAUCACCCAUGUCAUGUACAAGCUUUUUGCUCGUUUUAAUA [Zipper 49 - 14] (puzzle: Sensor for hsa-mir-208a)
apparent KD of MS2 coat protein: 509 nM
//
macromoleculeSequence: GAAUUUGAACUACAGGAUAUAUAGCAGAUGACAUGAGGAUCACCCAUGUAAGAGAAAGGAGGGAAAUAGAAGGGUAUGGGAGGUG [JR_SS2_Sub034] (puzzle: Same State 2)
apparent KD of MS2 coat protein: 34.5 nM
//
macromoleculeSequence: CUGUGUUGCGGGCAGGAUAUGUACUUGAGUACAUGAGGAUCACCCAUGUGCGGGUGUUUCACCCGACAGAAGGGCCUAUCGCGAC [JL-ss2-3.24 ViennaUCT mod] (puzzle: Same State 2)
apparent KD of MS2 coat protein: 140 nM
